measurement.description: Dissociation constant, pKa of Ar-COOH group of the compound
Type: physicochemical
Tag: Yes if measured pKa is not below 4, No if it is.

Completed entries (count: 4):
- molecule: "COc1ccc(C(=O)N/N=C(\\C)[C@]2(O)Cc3c(O)c4c(c(O)c3[C@@H](O[C@H]3C[C@H](N)[C@H](O)[C@H](C)O3)C2)C(=O)c2c(OC)cccc2C4=O)cc1.Cl"
  discrete.label: "Yes"
- molecule: "CCc1ccc(C(=O)N/N=C(\\C)[C@]2(O)Cc3c(O)c4c(c(O)c3[C@@H](O[C@H]3C[C@H](N)[C@H](O)[C@H](C)O3)C2)C(=O)c2c(OC)cccc2C4=O)cc1.Cl"
  discrete.label: "Yes"
- molecule: "COc1cccc2c1C(=O)c1c(O)c3c(c(O)c1C2=O)C[C@@](O)(/C(CO)=N/NC(=O)c1ccccc1)C[C@@H]3O[C@H]1C[C@H](N)[C@H](O)[C@H](C)O1.Cl"
  discrete.label: "Yes"
- molecule: "COc1cccc2c1C(=O)c1c(O)c3c(c(O)c1C2=O)C[C@@](O)(/C(C)=N/NC(=O)c1ccccc1)C[C@@H]3O[C@H]1C[C@H](N)[C@H](O)[C@H](C)O1.Cl [ZORUBICIN HYDROCHLORIDE]"
  discrete.label: "Yes"

## Input Given `COc1cccc2c1C(=O)c1c(O)c3c(c(O)c1C2=O)C[C@@](O)(/C(C)=N/NC(=O)c1ccc(Cl)c(Cl)c1)C[C@@H]3O[C@H]1C[C@H](N)[C@H](O)[C@H](C)O1.Cl` , state whether its pKa is at least 4.
## Output No

## Input Given `COc1cccc2c1C(=O)c1c(O)c3c(c(O)c1C2=O)C[C@@](O)(/C(C)=N/NC(=O)c1ccc(O)cc1)C[C@@H]3O[C@H]1C[C@H](N)[C@H](O)[C@H](C)O1.Cl` , state whether its pKa is at least 4.
## Output Yes

## Input Given `COc1cccc2c1C(=O)c1c(O)c3c(c(O)c1C2=O)C[C@@](O)(/C(CO)=N/NC(=O)c1ccc(Cl)c(Cl)c1)C[C@@H]3O[C@H]1C[C@H](N)[C@H](O)[C@H](C)O1.Cl` , state whether its pKa is at least 4.
## Output No

## Input Given `COc1cccc2c1C(=O)c1c(O)c3c(c(O)c1C2=O)C[C@@](O)(/C(C)=N/NC(=O)c1cccc([N+](=O)[O-])c1)C[C@@H]3O[C@H]1C[C@H](N)[C@H](O)[C@H](C)O1.Cl` , state whether its pKa is at least 4.
## Output No

## Input Given `COc1cccc2c1C(=O)c1c(O)c3c(c(O)c1C2=O)C[C@@](O)(/C(C)=N/NC(=O)c1ccc(N(C)C)cc1)C[C@@H]3O[C@H]1C[C@H](N)[C@H](O)[C@H](C)O1.Cl` , state whether its pKa is at least 4.
## Output Yes

## Input Given `CCCCOc1ccc(C(=O)N/N=C(\C)[C@]2(O)Cc3c(O)c4c(c(O)c3[C@@H](O[C@H]3C[C@H](N)[C@H](O)[C@H](C)O3)C2)C(=O)c2c(OC)cccc2C4=O)cc1.Cl` , state whether its pKa is at least 4.
## Output Yes

----------
Species: Rattus norvegicus
measurement.description: Cardiotoxicity in rat ECG model
measurement.conditions: in vivo
Items are presented alongside their recorded MCCD.
Numeric answer only, unit mg/kg assumed.

Example cases with answers are listed next.
- compound: "COc1cccc2c1C(=O)c1c(O)c3c(c(O)c1C2=O)C[C@@](O)(/C(C)=N/NC(=O)c1ccc(N(C)C)cc1)C[C@@H]3O[C@H]1C[C@H](N)[C@H](O)[C@H](C)O1.Cl"
  MCCD, mg/kg: 12
- compound: "COc1cccc2c1C(=O)c1c(O)c3c(c(O)c1C2=O)C[C@@](O)(C(C)=O)C[C@@H]3O[C@H]1C[C@H](N)[C@H](O)[C@H](C)O1 [DAUNORUBICIN]"
  MCCD, mg/kg: 14
- compound: "COc1cccc2c1C(=O)c1c(O)c3c(c(O)c1C2=O)C[C@@](O)(C(=O)CO)C[C@@H]3O[C@H]1C[C@H](N)[C@H](O)[C@H](C)O1.Cl [DOXORUBICIN HYDROCHLORIDE]"
  MCCD, mg/kg: 11

## Input Using the record for `COc1cccc2c1C(=O)c1c(O)c3c(c(O)c1C2=O)C[C@@](O)(/C(C)=N/NC(=O)c1ccc(-c2ccccc2)cc1)C[C@@H]3O[C@H]1C[C@H](N)[C@H](O)[C@H](C)O1.Cl` , state its measured MCCD.
## Output 40

## Input Using the record for `COc1cccc2c1C(=O)c1c(O)c3c(c(O)c1C2=O)C[C@@](O)(/C(C)=N/NC(=O)c1cccc([N+](=O)[O-])c1)C[C@@H]3O[C@H]1C[C@H](N)[C@H](O)[C@H](C)O1.Cl` , state its measured MCCD.
## Output 32

----------
Items are presented alongside their recorded T/C.
System: P388
measurement.description: In vivo antitumor activity against mouse P388 cells allografted in BDF/CDF mouse assessed as host survival time at 4 mg/kg, ip administered on days 1 to 9 relative to control
Assay type: functional
measurement.conditions: route intraperitoneal
Numeric answer only, unit % assumed.

- compound: "COc1cccc2c1C(=O)c1c(O)c3c(c(O)c1C2=O)C[C@@](O)(/C(C)=N/NC(=O)c1ccccc1)C[C@@H]3O[C@H]1C[C@H](N)[C@H](O)[C@H](C)O1.Cl [ZORUBICIN HYDROCHLORIDE]"
  target.of.assay: "P388"
  T/C (%): 192

## Input Using the record for `COc1cccc2c1C(=O)c1c(O)c3c(c(O)c1C2=O)C[C@@](O)(/C(C)=N/NC(=O)c1ccc(Cl)c(Cl)c1)C[C@@H]3O[C@H]1C[C@H](N)[C@H](O)[C@H](C)O1.Cl` , state its measured T/C.
## Output 163

## Input Using the record for `COc1cccc2c1C(=O)c1c(O)c3c(c(O)c1C2=O)C[C@@](O)(/C(C)=N/NC(=O)c1ccc(-c2ccccc2)cc1)C[C@@H]3O[C@H]1C[C@H](N)[C@H](O)[C@H](C)O1.Cl` , state its measured T/C.
## Output 190

----------
measurement.description: Partition coefficient, log P of the compound
Format: physicochemical
measurement.conditions: octanol/water
Items are presented alongside their recorded logP.
Number only, no unit.

Example cases with answers are listed next.
- compound: "COc1cccc2c1C(=O)c1c(O)c3c(c(O)c1C2=O)C[C@@](O)(/C(C)=N/NC(=O)c1ccc(-c2ccccc2)cc1)C[C@@H]3O[C@H]1C[C@H](N)[C@H](O)[C@H](C)O1.Cl"
  logP: 3
- compound: "COc1cccc2c1C(=O)c1c(O)c3c(c(O)c1C2=O)C[C@@](O)(/C(C)=N/NC(=O)c1cccc([N+](=O)[O-])c1)C[C@@H]3O[C@H]1C[C@H](N)[C@H](O)[C@H](C)O1.Cl"
  logP: 0.76
- compound: "COc1cccc2c1C(=O)c1c(O)c3c(c(O)c1C2=O)C[C@@](O)(C(C)=O)C[C@@H]3O[C@H]1C[C@H](N)[C@H](O)[C@H](C)O1 [DAUNORUBICIN]"
  logP: 0.82
- compound: "COc1cccc2c1C(=O)c1c(O)c3c(c(O)c1C2=O)C[C@@](O)(/C(CO)=N/NC(=O)c1ccc(Cl)c(Cl)c1)C[C@@H]3O[C@H]1C[C@H](N)[C@H](O)[C@H](C)O1.Cl"
  logP: 1.94
- compound: "COc1cccc2c1C(=O)c1c(O)c3c(c(O)c1C2=O)C[C@@](O)(C(=O)CO)C[C@@H]3O[C@H]1C[C@H](N)[C@H](O)[C@H](C)O1.Cl [DOXORUBICIN HYDROCHLORIDE]"
  logP: 0.3

## Input Using the record for `COc1cccc2c1C(=O)c1c(O)c3c(c(O)c1C2=O)C[C@@](O)(/C(C)=N/NC(=O)c1ccc(N(C)C)cc1)C[C@@H]3O[C@H]1C[C@H](N)[C@H](O)[C@H](C)O1.Cl` , state its measured logP.
## Output 1.22

----------
measurement.description: Partition coefficient, log P of the compound
Assay type: physicochemical
measurement.conditions: octanol/water
Items are presented alongside their recorded logP.
Number only, no unit.

- molecule: "COc1ccc(C(=O)N/N=C(\\C)[C@]2(O)Cc3c(O)c4c(c(O)c3[C@@H](O[C@H]3C[C@H](N)[C@H](O)[C@H](C)O3)C2)C(=O)c2c(OC)cccc2C4=O)cc1.Cl"
  measured.endpoint: "logP"
  recorded.measurement: 1.02
- molecule: "CCc1ccc(C(=O)N/N=C(\\C)[C@]2(O)Cc3c(O)c4c(c(O)c3[C@@H](O[C@H]3C[C@H](N)[C@H](O)[C@H](C)O3)C2)C(=O)c2c(OC)cccc2C4=O)cc1.Cl"
  measured.endpoint: "logP"
  recorded.measurement: 2.06
- molecule: "COc1cccc2c1C(=O)c1c(O)c3c(c(O)c1C2=O)C[C@@](O)(/C(C)=N/NC(=O)c1ccc(Cl)cc1)C[C@@H]3O[C@H]1C[C@H](N)[C@H](O)[C@H](C)O1.Cl"
  measured.endpoint: "logP"
  recorded.measurement: 1.75
- molecule: "COc1cccc2c1C(=O)c1c(O)c3c(c(O)c1C2=O)C[C@@](O)(/C(C)=N/NC(=O)c1ccc(O)cc1)C[C@@H]3O[C@H]1C[C@H](N)[C@H](O)[C@H](C)O1.Cl"
  measured.endpoint: "logP"
  recorded.measurement: 0.37

Please look at the following molecule next.
## Input Using the record for COc1cccc2c1C(=O)c1c(O)c3c(c(O)c1C2=O)C[C@@](O)(/C(C)=N/NC(=O)c1ccccc1)C[C@@H]3O[C@H]1C[C@H](N)[C@H](O)[C@H](C)O1.Cl [ZORUBICIN HYDROCHLORIDE] , state its measured logP.
## Output 1.04
